Listed compounds paired with reported inhibition
ASSAY_TARGET: Integrin beta-1 (Homo sapiens) + Integrin alpha-4 (Homo sapiens) (UniProt P13612+P05556)
Sequence (P05556 whole entry, looked up): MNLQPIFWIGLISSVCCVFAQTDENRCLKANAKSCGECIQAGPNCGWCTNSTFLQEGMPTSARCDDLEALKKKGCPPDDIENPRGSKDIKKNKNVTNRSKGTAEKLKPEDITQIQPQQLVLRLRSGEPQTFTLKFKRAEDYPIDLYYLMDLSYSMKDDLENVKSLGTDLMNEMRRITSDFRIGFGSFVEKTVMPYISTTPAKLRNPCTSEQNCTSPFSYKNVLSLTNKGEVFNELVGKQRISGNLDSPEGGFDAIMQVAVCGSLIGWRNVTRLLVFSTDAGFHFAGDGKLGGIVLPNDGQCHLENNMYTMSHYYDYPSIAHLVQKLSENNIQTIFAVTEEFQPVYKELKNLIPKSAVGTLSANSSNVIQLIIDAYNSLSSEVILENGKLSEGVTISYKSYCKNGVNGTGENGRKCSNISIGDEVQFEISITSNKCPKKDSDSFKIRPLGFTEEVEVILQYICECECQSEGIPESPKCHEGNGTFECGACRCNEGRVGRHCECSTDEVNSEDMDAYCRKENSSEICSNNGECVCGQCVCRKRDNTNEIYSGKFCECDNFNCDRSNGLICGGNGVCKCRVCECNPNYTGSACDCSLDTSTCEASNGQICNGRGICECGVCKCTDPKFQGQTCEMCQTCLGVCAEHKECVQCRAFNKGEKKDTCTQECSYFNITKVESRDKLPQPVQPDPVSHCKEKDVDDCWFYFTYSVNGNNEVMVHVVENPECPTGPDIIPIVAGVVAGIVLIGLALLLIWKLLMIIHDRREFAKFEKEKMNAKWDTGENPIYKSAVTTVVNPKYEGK
Sequence (P13612 whole entry, looked up): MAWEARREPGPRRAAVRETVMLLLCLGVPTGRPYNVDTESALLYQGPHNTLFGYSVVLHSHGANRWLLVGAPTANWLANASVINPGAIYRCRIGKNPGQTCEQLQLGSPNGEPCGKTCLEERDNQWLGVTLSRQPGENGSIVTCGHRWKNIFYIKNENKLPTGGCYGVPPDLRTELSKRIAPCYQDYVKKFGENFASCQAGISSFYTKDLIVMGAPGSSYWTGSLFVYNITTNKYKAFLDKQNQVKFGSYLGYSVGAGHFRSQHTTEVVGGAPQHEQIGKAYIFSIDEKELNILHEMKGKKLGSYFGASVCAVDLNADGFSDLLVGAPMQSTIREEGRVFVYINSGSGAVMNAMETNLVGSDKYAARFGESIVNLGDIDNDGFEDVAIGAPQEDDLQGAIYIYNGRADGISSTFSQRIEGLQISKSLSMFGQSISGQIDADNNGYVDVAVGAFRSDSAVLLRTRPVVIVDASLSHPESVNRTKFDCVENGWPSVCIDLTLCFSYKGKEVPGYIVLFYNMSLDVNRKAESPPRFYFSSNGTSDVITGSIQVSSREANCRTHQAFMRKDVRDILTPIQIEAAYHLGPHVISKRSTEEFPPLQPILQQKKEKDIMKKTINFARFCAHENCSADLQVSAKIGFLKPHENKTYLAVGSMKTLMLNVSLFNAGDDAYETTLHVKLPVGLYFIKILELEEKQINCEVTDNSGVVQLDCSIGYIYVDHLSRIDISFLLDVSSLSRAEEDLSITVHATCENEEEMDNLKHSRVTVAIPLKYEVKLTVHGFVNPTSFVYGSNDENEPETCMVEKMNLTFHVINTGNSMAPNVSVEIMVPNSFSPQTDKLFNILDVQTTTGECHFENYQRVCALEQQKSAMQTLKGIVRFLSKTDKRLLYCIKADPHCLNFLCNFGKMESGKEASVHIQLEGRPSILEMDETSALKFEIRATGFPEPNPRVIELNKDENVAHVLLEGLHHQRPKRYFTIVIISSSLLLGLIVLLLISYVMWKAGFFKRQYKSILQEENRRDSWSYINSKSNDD
ASSAY_NAME: inhibition of HUTS-21 binding to VLA-4, pilot screen, VLA-4 allosteric modulator project, U937 cells, HUTS-21 mAb, flow cytometry, validation set (AID 2674);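 also: antibody binding induced by the VLA-4 ligand LDV present at three times its Kd; 0% = LDV ligand with antibody and no compound and 100% = antibody without LDV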
CONDITION_DETAILS: HUTS-21 LIBS mAb binding, at 6.7 µM, hits give high values, binding induced by LDV ligand
REPORTED_ENDPOINT: inhibition (%)

>  <COMPOUND>
CNC[C@H](O)c1ccc(O)c(O)c1

>  <ASSAY_TARGET>
Integrin beta-1 (Homo sapiens) + Integrin alpha-4 (Homo sapiens) (UniProt P13612+P05556)

>  <EXPERIMENTAL_RESULT>
-25.4

$$$$
>  <COMPOUND>
CN(C)c1ccc(O)c2c1CC1CC3[C@@H](N(C)C)C(=O)C(C(N)=O)=C(O)[C@]3(O)C(=O)C1=C2O (stereo partly specified)

>  <ASSAY_TARGET>
Integrin beta-1 (Homo sapiens) + Integrin alpha-4 (Homo sapiens) (UniProt P13612+P05556)

>  <EXPERIMENTAL_RESULT>
4.27

$$$$
>  <COMPOUND>
C[C@]12CC[C@@H]3c4ccc(OS(=O)(=O)O)cc4CC[C@H]3[C@@H]1CCC2=O

>  <ASSAY_TARGET>
Integrin beta-1 (Homo sapiens) + Integrin alpha-4 (Homo sapiens) (UniProt P13612+P05556)

>  <EXPERIMENTAL_RESULT>
5.49

$$$$
>  <COMPOUND>
CC1(C)C2CCC1(C(=O)O)c1nc3ccccc3nc12 (stereo unspecified)

>  <ASSAY_TARGET>
Integrin beta-1 (Homo sapiens) + Integrin alpha-4 (Homo sapiens) (UniProt P13612+P05556)

>  <EXPERIMENTAL_RESULT>
-1.12

$$$$
>  <COMPOUND>
Clc1ccc2c(c1)C(N1CCNCC1)=Nc1ccccc1O2

>  <ASSAY_TARGET>
Integrin beta-1 (Homo sapiens) + Integrin alpha-4 (Homo sapiens) (UniProt P13612+P05556)

>  <EXPERIMENTAL_RESULT>
-42.2

$$$$
>  <COMPOUND>
Cc1[nH]c2ccccc2c1C(=O)CN1CCCC1

>  <ASSAY_TARGET>
Integrin beta-1 (Homo sapiens) + Integrin alpha-4 (Homo sapiens) (UniProt P13612+P05556)

>  <EXPERIMENTAL_RESULT>
-4.6

$$$$
>  <COMPOUND>
CCCNC(=O)NS(=O)(=O)c1ccc(Cl)cc1

>  <ASSAY_TARGET>
Integrin beta-1 (Homo sapiens) + Integrin alpha-4 (Homo sapiens) (UniProt P13612+P05556)

>  <EXPERIMENTAL_RESULT>
1.12

$$$$
>  <COMPOUND>
CCN(CC)C(=O)c1ccc(O)c(OC)c1

>  <ASSAY_TARGET>
Integrin beta-1 (Homo sapiens) + Integrin alpha-4 (Homo sapiens) (UniProt P13612+P05556)

>  <EXPERIMENTAL_RESULT>
25.9

$$$$
>  <COMPOUND>
O=C(NCC1CCCCN1)c1cc(OCC(F)(F)F)ccc1OCC(F)(F)F (stereo unspecified)

>  <ASSAY_TARGET>
Integrin beta-1 (Homo sapiens) + Integrin alpha-4 (Homo sapiens) (UniProt P13612+P05556)

>  <EXPERIMENTAL_RESULT>
1.62

$$$$
>  <COMPOUND>
Fc1cc(F)cc(NC(=S)NCCCN2CCOCC2)c1

>  <ASSAY_TARGET>
Integrin beta-1 (Homo sapiens) + Integrin alpha-4 (Homo sapiens) (UniProt P13612+P05556)

>  <EXPERIMENTAL_RESULT>
5.69

$$$$
>  <COMPOUND>
COc1ccc(/C=C\C(=O)c2c(O)ccc3c(C)cc(=O)oc23)cc1OC

>  <ASSAY_TARGET>
Integrin beta-1 (Homo sapiens) + Integrin alpha-4 (Homo sapiens) (UniProt P13612+P05556)

>  <EXPERIMENTAL_RESULT>
14.2

$$$$

* * *

ASSAY_NAME: AGP1-GFP expression modulators, hit retest, confirmation, cell-based, flow cytometry, S. cerevisiae, cherry picks (AID 2273);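 also: median GFP channel fluorescence over the whole cell population gate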
CONDITION_DETAILS: S. cerevisiae AGP1-GFP strain, 3 h, at 10 µM

>  <COMPOUND>
COc1cc(/C=C2\C(=O)ON=C2c2ccccc2)cc(Br)c1O

>  <GFP response, % of DMSO [%]>
92.7

$$$$
>  <COMPOUND>
O=C(O)CSc1nnc(-c2ccncc2)n1CCc1ccccc1

>  <GFP response, % of DMSO [%]>
98.3

$$$$
>  <COMPOUND>
O=C1/C(=C/c2ccccn2)COc2ccccc21

>  <GFP response, % of DMSO [%]>
95.5

$$$$
>  <COMPOUND>
CCCn1c(=O)c(C(=O)Nc2ccccc2)c(O)c2ccccc21

>  <GFP response, % of DMSO [%]>
96.6

$$$$
>  <COMPOUND>
COc1ccccc1N1C(=O)CC(Sc2nccc(C)n2)C1=O (stereo not drawn)

>  <GFP response, % of DMSO [%]>
99.6

$$$$
>  <COMPOUND>
Cn1ncc2c(O/N=C(\N)c3ccc(C(C)(C)C)cc3)ncnc21

>  <GFP response, % of DMSO [%]>
106

$$$$
>  <COMPOUND>
COC(=O)c1cc(N2C(=O)C3C(C2=O)C2(C)C=CC3(C)O2)ccc1Cl (stereo not drawn)

>  <GFP response, % of DMSO [%]>
106

$$$$
>  <COMPOUND>
O=C(O)c1ccc(N/N=C/c2c(F)cccc2Cl)cc1

>  <GFP response, % of DMSO [%]>
94

$$$$
>  <COMPOUND>
CCCCc1nnc(NC(=O)c2nc3nccc(C)n3n2)s1

>  <GFP response, % of DMSO [%]>
104

$$$$
>  <COMPOUND>
CCc1ccc(CNC(=O)CCC(=O)N2Cc3cccc(OC)c3Oc3ncccc32)cc1

>  <GFP response, % of DMSO [%]>
96.7

$$$$
>  <COMPOUND>
Cc1ccc(S(=O)(=O)NCC23C=CC(O2)C2C(=O)N(c4ccccc4)C(=O)C23)cc1 (stereo not drawn)

>  <GFP response, % of DMSO [%]>
99.9

$$$$
>  <COMPOUND>
Cc1ccc(S(=O)(=O)N2CCCC2C(=O)OCc2ccco2)cc1 (stereo not drawn)

>  <GFP response, % of DMSO [%]>
97.6

$$$$
>  <COMPOUND>
CCCc1[nH]nc2c1C(c1ccc(OC)c(Cn3nnc4ccccc43)c1)C(C#N)=C(N)O2 (stereo not drawn)

>  <GFP response, % of DMSO [%]>
103

$$$$
>  <COMPOUND>
COc1ccc(C(=O)c2no[n+]([O-])c2C(=O)c2ccc(OC)cc2)cc1

>  <GFP response, % of DMSO [%]>
92.9

$$$$
>  <COMPOUND>
O=C(c1ccccc1)c1ccccc1N1C(=O)C=CC1=O

>  <GFP response, % of DMSO [%]>
129

$$$$
>  <COMPOUND>
O=C(O)CCc1ccc(-c2ccc(Cl)cc2)o1

>  <GFP response, % of DMSO [%]>
85.4

$$$$
>  <COMPOUND>
CCc1nn2c(N3CCOCC3)cc(C)nc2c1-c1ccc(F)cc1

>  <GFP response, % of DMSO [%]>
98.6

$$$$
>  <COMPOUND>
COc1ccccc1N1C(=O)CC(Sc2ncccc2C(=O)O)C1=O (stereo not drawn)

>  <GFP response, % of DMSO [%]>
99.2

$$$$
>  <COMPOUND>
C[C@@H](C(=O)Nc1nc2ccc(F)cc2s1)N1C(=O)C2CC=CCC2C1=O (stereo partly drawn)

>  <GFP response, % of DMSO [%]>
99.7

$$$$
>  <COMPOUND>
Cn1c(=O)[nH]c(=O)c2c1nc(N1CCCCC1)n2CCOc1ccccc1

>  <GFP response, % of DMSO [%]>
104

$$$$
>  <COMPOUND>
CC(=O)Nc1ccc(NC(=O)c2nc(S(=O)(=O)Cc3ccccc3)ncc2Cl)cc1

>  <GFP response, % of DMSO [%]>
96.8

$$$$
>  <COMPOUND>
N#C/C(=C\c1c(N2CCCCCC2)nc2ccccn2c1=O)C(=O)NCc1ccco1

>  <GFP response, % of DMSO [%]>
95.6

$$$$
>  <COMPOUND>
COc1ccccc1NC(=O)Cn1nnc(-c2ccccc2NC(=O)c2ccco2)n1

>  <GFP response, % of DMSO [%]>
95.4

$$$$

* * *

ASSAY_NAME: LAP4-GFP expression modulators in yeast, confirmation, cell-based, second cherry pick, flow cytometry (AID 2621);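 also: ratio of well median GFP fluorescence to plate DMSO mean so 100% = DMSO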
CONDITION_DETAILS: S. cerevisiae LAP4-GFP strain, 3 h, at 10 µM, hits give high values
The list shows a part of the results.

>  <SMI>
CC(C)[C@@H]1COC(c2cccc(C3=N[C@H](C(C)C)CO3)c2)=N1

>  <GFP response vs DMSO [%]>
99

$$$$
>  <SMI>
Cc1ccc2nc(N(CCN(C)C)C(=O)C3=COCCO3)sc2c1

>  <GFP response vs DMSO [%]>
102

$$$$
>  <SMI>
COc1ccc(C)cc1NC(=O)CSc1nc(SC)ns1

>  <GFP response vs DMSO [%]>
97.2

$$$$
>  <SMI>
O=C(COc1cccnc1[N+](=O)[O-])Nc1ccc(Cl)cc1F

>  <GFP response vs DMSO [%]>
99.2

$$$$
>  <SMI>
COc1ccc(-c2nc(CS(=O)(=O)CC(=O)NCc3cccc(Br)c3)c(C)o2)cc1

>  <GFP response vs DMSO [%]>
109

$$$$
>  <SMI>
COc1ccc(CCNC(=O)CS(=O)(=O)Cc2nc(-c3ccc(C)cc3)oc2C)cc1OC

>  <GFP response vs DMSO [%]>
103

$$$$
>  <SMI>
COC(=O)C[n+]1cccc2ccccc21

>  <GFP response vs DMSO [%]>
106

$$$$
>  <SMI>
CCn1c(SCCC(C)C)nnc1-c1c[nH]c2ccccc12

>  <GFP response vs DMSO [%]>
95.2

$$$$
>  <SMI>
COc1ccc2nc(N3CCN(C(=O)c4ccc([N+](=O)[O-])o4)CC3)sc2c1

>  <GFP response vs DMSO [%]>
252

$$$$
>  <SMI>
Clc1cccc(CN2COc3c(cc(Cl)c4cccnc34)C2)c1

>  <GFP response vs DMSO [%]>
127

$$$$
>  <SMI>
CCc1nnc(SCc2cccc(F)c2)nc1CC

>  <GFP response vs DMSO [%]>
104

$$$$
>  <SMI>
CCOC(=O)c1cnc(SCC(=O)NCc2ccco2)nc1N

>  <GFP response vs DMSO [%]>
99.2

$$$$
>  <SMI>
CCCn1nc(C(=O)NNC(=O)CCOc2ccccc2OCC)c2ccccc2c1=O

>  <GFP response vs DMSO [%]>
102

$$$$
